Recorded values, source paper PMC6908968.

# MEASURED ON: T1, thermolysin-cleaved EBOV GP on Jurkat-GP cells (cleaved GP) (Zaire ebolavirus, Makona (GP1 core …, strain))
# T1 chain 1: not shown
# T1 chain 2: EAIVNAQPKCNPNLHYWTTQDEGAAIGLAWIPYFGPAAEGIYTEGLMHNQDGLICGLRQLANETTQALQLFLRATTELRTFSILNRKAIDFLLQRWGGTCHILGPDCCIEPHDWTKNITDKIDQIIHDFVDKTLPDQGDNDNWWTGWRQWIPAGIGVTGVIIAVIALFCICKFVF
MEASUREMENT TYPE: binding result

BINDER	VALUE OBSERVED
5.6.c3479 (antibody, V domains shown) VH: QVHLVESGGGLVKPGGSLRLSCSVSGFAFSDYYMTWIRQAPGKGLEWVSYISGDGGSIYYADSVKGRFTISRDNAKKSLYLQLNSLRADDTAVYYCARDRCDRDQLLCYYYYGMDVWGQGTTVTVSS VL: QSVLTQPPSVSAAPGQKVTISCSGSSSNIGNNYVSWYQQLPGTAPKLLIYDNNKRPSGIPDRFSGSKSGTSATLDITGLQTGDEADYYCGTWDNSLIAGVFGGGTKLTVL	binds
9.1.c1617 (antibody, V domains shown) VH: QVQFVESGGGLVKPGGSLRLSCTTSGFTFSDYYMSWIRQAPGKGLEWVSYISRSGNIIYYPDSVKGRFTISRDNAKNSLYLQMNSLRVEDTAVYYCAGGVQRGYNYYYYGMYVWGQGITVTVSS VL: DIVMTQSPLSLPVTPGEPASISCRSSQSLLHSNGYNYLDWYLQRPGQSPQLLIYLGSNRASGVPDRFSGSGSGTDFTLKISRVEAEDFGFYYCMQALQTPYTFGQGTKLEIR	binds
15.0.c778 (antibody, V domains shown) VH: QVQLHESGPGVVKVSETLSLTCTLSGGSINGNSWSWIRQTAGKGLEWIGRVYTSGSPNYNPSLKSRLTMSIVTSKNQFSLTLRSVTAADTAIYYCARDFVVIDPTRVVDDYDAFDVWGRGTVVTVSS VL: DIQLTQSPSILSASVGDRVTITCRASQSVSRYLAWYQQKPGNAPKLLIYKVSTLQSGVPSRFSGSASGTEFTLTINSLQPDDFATYYCHQYNGYLYTFGQGTKVDVK	binds
